assay-target: CK2 (Homo sapiens, UniProt P68400)
Sequence (P68400 whole entry): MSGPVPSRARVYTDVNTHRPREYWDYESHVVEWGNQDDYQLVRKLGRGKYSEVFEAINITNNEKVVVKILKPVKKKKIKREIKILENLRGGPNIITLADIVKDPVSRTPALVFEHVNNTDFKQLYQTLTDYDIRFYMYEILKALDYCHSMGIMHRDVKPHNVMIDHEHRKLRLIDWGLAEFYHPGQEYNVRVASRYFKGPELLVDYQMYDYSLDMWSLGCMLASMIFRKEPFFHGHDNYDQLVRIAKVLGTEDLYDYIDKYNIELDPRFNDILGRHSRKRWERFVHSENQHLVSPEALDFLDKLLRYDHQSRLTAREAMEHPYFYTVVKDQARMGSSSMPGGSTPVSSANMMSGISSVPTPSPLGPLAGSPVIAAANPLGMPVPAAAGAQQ
Sequence (P67870 whole entry partner): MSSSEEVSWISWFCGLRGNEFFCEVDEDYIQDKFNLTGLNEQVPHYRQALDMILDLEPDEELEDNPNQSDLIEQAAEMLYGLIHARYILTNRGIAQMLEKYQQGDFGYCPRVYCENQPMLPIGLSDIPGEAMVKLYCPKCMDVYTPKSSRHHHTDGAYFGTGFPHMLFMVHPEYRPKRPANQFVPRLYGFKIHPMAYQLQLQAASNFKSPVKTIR
method-description: CK2 inhibition, biochemical chemiluminescence holoenzyme assay (Kinase Glo, IC50 determination)
settings: Table 1 activity class; symbol given only if active; read-out: CK2 IC50 (Activity C)
pIC50: −log10 of the molar value.
endpoint-name: pIC50

A selection of reference data follows.
- smiles-record: "Cc1cc(Br)cc2c1oc1c(=O)[nH]c(CN3CC[C@H](O)C3)nc12"
  pIC50: "> 5.00"
- smiles-record: "COc1ccc(Br)c2oc3c(=O)[nH]c(CN4CC[C@H](O)C4)nc3c12"
  pIC50: "> 5.00"
- smiles-record: "CC(=O)N1CCC(c2nc3c(oc4ccc(Br)cc43)c(=O)[nH]2)CC1"
  pIC50: "> 5.00"

Next, consider the following molecule.
Value of pIC50 reported for the molecule Cc1n[nH]c2ccc(-c3nc4c(oc5ccc(Br)cc54)c(=O)[nH]3)cc12 is > 5.00

Values were extracted from patent US20090247559A1.
